System: KB
Experiment: Growth inhibition of sensitive and drug-resistant cell lines (IC50), KB
Type: cell-based
Details: Homo sapiens; KB cells, Table 1
EXPERIMENTAL_ENDPOINT: IC50 (µg/mL)
Numeric only. Scale: µg/mL

Answered cases to consult:
CCC/C=C1\OC(=O)C2=C1CCC1C2[C@@]23CC[C@@H]1C=C2C(=O)O/C3=C\CCC (some centres unmarked) [S4]: 15.5
CCC/C=C1\OC(=O)C2=C1CCC1[C@H]2C23C=CCC[C@@H]2C1(C(=O)CCC)OC3=O (single isomer, unassigned) [S3]: 19
CCC/C=C1\OC(=O)C2=C1CCC1C2C2(OC(=O)c3ccccc32)[C@@H]1CCC (some centres unmarked) [S2]: 15.8
CCC/C=C1\OC(=O)C2=CC3CC[C@]21C1C2=C(CC[C@@H]31)C(CCCC)OC2=O (some centres unmarked) [S5]: 16.4

Entry CCC/C=C1\OC(=O)C2=C1CCC1C2C2(OC(=O)C3=C2CCC=C3)C1(C)CCC (centres unmarked) [S6] — recorded IC50 = 13
